meta.source: patent US10774096B2

Test system: HepG2 cells
Test: HepG2 cytotoxicity assay (resazurin, 48 h)
Type: cell-based, human
Conditions: human
Readout name: HepG2 cell 48 h Tox50 (A)

NC[C@H]1OB2OCCOc3c(Cl)cc(Cl)c1c32 ... >50 µM
CC1(C)COB2OC(CN)c3cccc(c32)O1 (stereo not shown) ... >50 µM
Cc1ccc2c3c1[C@@H](CN)OB3OCCO2 ... 971 µM

Would you kindly look at the next entry?
What the record says about CC1COc2c(Cl)cc(Cl)c3c2B(O1)OC3CN (stereo not shown) : HepG2 cell 48 h Tox50 (A) is >50 µM

* * *

Tested on: HepG2 cells
Test: HepG2 cytotoxicity assay (resazurin, 48 h)
Type: cell-based, human
Conditions: human
Protocol: HepG2 cells (HB-8065) were fed fresh medium (Essential Minimum Eagle Medium, EMEM, supplemented with 5% fetal calf serum and 2 mM L-glutamine) the day before subculturing the plates. […] Plates were removed from incubator to allow the fluorescence to stabilise at room temperature protected from light for 15 min. For read out of viability of cells we used Resazurine (BDH). […] The degree of Resazurin fluorescence is therefore, an indicator of the number of viable cells in the culture system. […]
Readout name: HepG2 cell 48 h Tox50 (A)

Worked cases, answers included:
CC1COc2cccc3c2B(O1)OC3CN (stereo not drawn) [Example C11-H] ... > 50 µM
NCC1OB2OCCOc3cccc1c32 (racemic) [Example C2-H] ... >50 µM
NC[C@H]1OB2OCCOc3c(Cl)ccc1c32 [Example C13-Cl] ... >50 µM

What the record says about CC1(C)COc2cccc3c2B(OC3CN)O1 (stereo not drawn) [Example C12-H] : HepG2 cell 48 h Tox50 (A) is 24.5 µM

What the record says about CC1(C)COc2c(Cl)ccc3c2B(OC3CN)O1 (stereo not drawn) [Example C8-Cl] : HepG2 cell 48 h Tox50 (A) is >50 µM

What the record says about CC1(C)COB2OC(CN)c3c(Cl)ccc(c32)O1 (stereo not drawn) [Example C9-Cl] : HepG2 cell 48 h Tox50 (A) is >50 µM

* * *

Target: Mtb LeuRS (Mycobacterium tuberculosis)
Sequence (P9WFV1 whole entry): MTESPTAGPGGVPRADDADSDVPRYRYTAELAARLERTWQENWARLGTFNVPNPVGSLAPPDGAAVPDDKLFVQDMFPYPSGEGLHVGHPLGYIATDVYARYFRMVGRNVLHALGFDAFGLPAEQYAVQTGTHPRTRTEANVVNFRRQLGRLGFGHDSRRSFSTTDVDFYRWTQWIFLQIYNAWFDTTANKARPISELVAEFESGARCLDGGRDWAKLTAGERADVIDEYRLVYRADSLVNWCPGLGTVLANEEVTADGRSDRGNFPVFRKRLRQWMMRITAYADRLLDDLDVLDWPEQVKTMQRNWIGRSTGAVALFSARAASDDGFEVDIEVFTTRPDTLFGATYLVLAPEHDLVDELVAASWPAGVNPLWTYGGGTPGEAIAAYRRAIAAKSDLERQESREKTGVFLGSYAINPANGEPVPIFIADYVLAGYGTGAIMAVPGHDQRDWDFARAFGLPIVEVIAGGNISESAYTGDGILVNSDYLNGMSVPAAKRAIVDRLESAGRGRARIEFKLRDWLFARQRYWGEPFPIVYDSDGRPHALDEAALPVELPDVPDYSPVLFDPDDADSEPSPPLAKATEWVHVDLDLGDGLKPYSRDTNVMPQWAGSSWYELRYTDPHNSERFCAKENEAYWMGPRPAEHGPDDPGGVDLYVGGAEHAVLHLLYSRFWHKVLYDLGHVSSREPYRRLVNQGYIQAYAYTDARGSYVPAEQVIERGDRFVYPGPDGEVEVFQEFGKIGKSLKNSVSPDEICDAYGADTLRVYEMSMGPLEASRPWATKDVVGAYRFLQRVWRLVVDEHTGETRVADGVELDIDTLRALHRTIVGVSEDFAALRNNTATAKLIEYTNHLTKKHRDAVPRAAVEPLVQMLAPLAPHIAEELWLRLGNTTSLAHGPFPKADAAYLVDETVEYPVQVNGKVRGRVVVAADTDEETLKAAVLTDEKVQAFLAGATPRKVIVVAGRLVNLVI
Test: LeuRS aminoacylation assay, IC50 determination
Assay type: biochemical, M. tuberculosis
Readout name: pIC50
Recall that pIC50 is obtained by taking minus log10 of the concentration measured in molar.

What the record says about Cc1ccc2c3c1[C@@H](CN)OB3OCCO2 : pIC50 is 6.28

* * *

Tested on: A. baumannii ATCC 17978
Test: General antimicrobial activity assay (CLSI broth microdilution), MIC
Type: cell-based
Each item that follows carries a reported MIC: A. baumannii ATCC 17978.

Worked cases, answers included:
CC1COc2cccc3c2B(O1)OC3CN (stereo not shown) ... 4 µg/mL
NCC1OB2OCCOc3cccc1c32 (racemic) ... 2 µg/mL
Cc1ccc2c3c1[C@@H](CN)OB3OCCO2 ... >64 µg/mL

Would you kindly look at the next entry?
What the record says about CC1(C)COc2cccc3c2B(OC3CN)O1 (stereo not shown) : MIC: A. baumannii ATCC 17978 is 4 µg/mL

* * *

Tested on: Mtb H37Rv
Test: MIC determination against mycobacteria (resazurin)
Format: cell-based, M. tuberculosis
Details: Mycobacterium tuberculosis, H37RV, read-out: Mtb H37Rv MIC (B)
Counter-ions that a name gives are not always drawn.
Flag rule - MIC less than 5 µM flags label 1; the remaining entries get label 0.

Consider the following illustrative entries.
NC[C@H]1OB2OCCOc3ccc(-c4cccs4)c1c32 [Example 4] ... label 0
Cc1ccc2c3c1[C@@H](CN)OB3OCCO2 [Example 2] ... label 1
CC1COc2c(Cl)cc(Cl)c3c2B(O1)OC3CN (centres unmarked) [Example C7-Cl2] ... label 1
CC1COc2cccc3c2B(O1)OC3CN (centres unmarked) [Example C11-H] ... label 1
NCC1OB2OCCOc3cccc1c32 (racemic) [Example C2-H] ... label 1

Moving on to the next compound.
Exercise: Say whether its MIC is strictly beneath 5 µM. Entry: NC[C@H]1OB2OCCOc3ccc(-c4ccccc4)c1c32 [Example 3, hydrochloride]
Solution: label 0

* * *

Tested on: HepG2 cells
Assay: HepG2 cytotoxicity assay (resazurin, 48 h)
Format: cell-based, human
Description: HepG2 cells (HB-8065) were fed fresh medium (Essential Minimum Eagle Medium, EMEM, supplemented with 5% fetal calf serum and 2 mM L-glutamine) the day before subculturing the plates. […] Plates were removed from incubator to allow the fluorescence to stabilise at room temperature protected from light for 15 min. For read out of viability of cells we used Resazurine (BDH). […] The degree of Resazurin fluorescence is therefore, an indicator of the number of viable cells in the culture system. […]
Each item that follows carries a reported HepG2 cell 48 h Tox50 (A).
Provide only the numeric value, understood in µM.

CCOc1cccc2c1B(O)O[C@@H]2CN ... 1.8
CCOc1ccc(Cl)c2c1B(O)O[C@@H]2CN ... 36.3

What the record says about CCOc1ccc(Br)c2c1B(O)O[C@@H]2CN : HepG2 cell 48 h Tox50 (A) is 32

* * *

Each item that follows carries a reported Selectivity Index (A/B).
Test system: Mtb H37Rv
Assay: MIC determination against mycobacteria (resazurin)
Assay type: cell-based, M. tuberculosis
Settings: HepG2 Tox50 (A) / Mtb H37Rv MIC (B)
The answer should be written as a number, with no unit following it.

CCOc1ccc(Br)c2c1B(O)O[C@@H]2CN ... 320
CC1(C)COc2c(Cl)ccc3c2B(OC3CN)O1 (stereo not shown) ... 10
CCOc1cccc2c1B(O)O[C@@H]2CN ... 3
CC1(C)COB2OC(CN)c3cccc(c32)O1 (stereo not shown) ... 10

Would you kindly look at the next entry?
What the record says about CCOc1ccc(Cl)c2c1B(O)O[C@@H]2CN : Selectivity Index (A/B) is 363

* * *

Test system: Mtb H37Rv
Assay: MIC determination against mycobacteria (resazurin)
Format: cell-based, M. tuberculosis
Conditions: HepG2 Tox50 (A) / Mtb H37Rv MIC (B)
Each item that follows carries a reported Selectivity Index (A/B).

Worked cases, answers included:
NCCOc1cccc2c1B(O)OC2 ... >0.8
CC1(C)COB2OC(CN)c3c(Cl)ccc(c32)O1 (centres unmarked) ... >10
NC[C@H]1OB2OCCOc3c(Cl)cc(Cl)c1c32 ... >10
CC1COc2c(Cl)cc(Cl)c3c2B(O1)OC3CN (centres unmarked) ... >20

Would you kindly look at the next entry?
What the record says about NC[C@H]1OB2OCCOc3c(Cl)ccc1c32 : Selectivity Index (A/B) is >10
